Tested on: Calf thymus DNA
Experiment: Binding affinity to calf thymus DNA assessed as change in melting temperature at 20 uM by thermal denaturation assay
Format: nucleic-acid assay
Conditions: Bos taurus
Each entry below lists one item and its recorded ΔTm value.

- smilesText: "CCN(CC)CCCNCc1cc2c3ccccc3n(CCCc3ccccc3)c2c(-c2cc(OC)c(OC)c(OC)c2)n1"
  testedTarget: "Calf thymus DNA"
  ΔTm: "14.6 °C"
- smilesText: "CCN(CC)CCCNCc1cc2c3ccccc3n(C)c2c(-c2cc(OC)c(OC)c(OC)c2)n1"
  testedTarget: "Calf thymus DNA"
  ΔTm: "17.3 °C"
- smilesText: "CCCCn1c2ccccc2c2cc(CNCCCN(CC)CC)nc(-c3cc(OC)c(OC)c(OC)c3)c21"
  testedTarget: "Calf thymus DNA"
  ΔTm: "14.8 °C"
- smilesText: "COc1cccc2c1C(=O)c1c(O)c3c(c(O)c1C2=O)C[C@@](O)(C(=O)CO)C[C@@H]3O[C@H]1C[C@H](N)[C@H](O)[C@H](C)O1"
  testedTarget: "Calf thymus DNA"
  ΔTm: "32 °C"
- smilesText: "CCN(CC)CCCNCc1cc2c([nH]c3ccccc32)c(-c2cc(OC)c(OC)c(OC)c2)n1"
  testedTarget: "Calf thymus DNA"
  ΔTm: "24.8 °C"

###

System: OS-RC-2
Experiment: Cytotoxicity against human OS-RC2 cells by MTT assay
Format: functional, cell-based
pIC50: −log10 of the molar value.

- smilesText: "CCN(CC)CCCNCc1cc2c3ccccc3n(C)c2c(-c2cc(OC)c(OC)c(OC)c2)n1"
  testedTarget: "OS-RC-2"
  pIC50: "< 4.30"
- smilesText: "CCN(CC)CCNCc1cc2c3ccccc3n(C)c2c(-c2cc(OC)c(OC)c(OC)c2)n1"
  testedTarget: "OS-RC-2"
  pIC50: "< 4.30"
- smilesText: "COc1cc(-c2nc(CNCCCN(C)C)cc3c2[nH]c2ccccc23)cc(OC)c1OC"
  testedTarget: "OS-RC-2"
  pIC50: "< 4.30"

###

Below, each entry is listed with its recorded pIC50.
Test system: KB
Experiment: Cytotoxicity against human KB cells by MTT assay
Type: functional, cell-based
pIC50: −log10 of the molar value.
readoutLabel: pIC50

- smilesText: "COc1cc(-c2nc(CNCCCN(C)C)cc3c2[nH]c2ccccc23)cc(OC)c1OC"
  value: "< 4.30"
- smilesText: "CCN(CC)CCNCc1cc2c3ccccc3n(C)c2c(-c2cc(OC)c(OC)c(OC)c2)n1"
  value: "< 4.30"
- smilesText: "COc1cc(-c2nc(CNCCCN(C)C)cc3c4ccccc4n(C)c23)cc(OC)c1OC"
  value: "< 4.30"

###

// reported IC50 for each item listed
Tested on: OS-RC-2
Assay: Cytotoxicity against human OS-RC2 cells by MTT assay
Type: functional, cell-based
readoutLabel: IC50

- smilesText: "CCN(CC)CCCCNCc1cc2c3ccccc3n(C)c2c(-c2cc(OC)c(OC)c(OC)c2)n1"
  testedTarget: "OS-RC-2"
  readoutLabel: "IC50"
  value: "> 50 µM"
- smilesText: "COc1cc(-c2nc(CNCCCN(C)C)cc3c4ccccc4n(C)c23)cc(OC)c1OC"
  testedTarget: "OS-RC-2"
  readoutLabel: "IC50"
  value: "> 50 µM"
- smilesText: "CC(=O)O[C@H]1C(=O)[C@@]2(C)[C@H]([C@H](OC(=O)c3ccccc3)[C@]3(O)C[C@H](OC(=O)[C@H](O)[C@@H](NC(=O)c4ccccc4)c4ccccc4)C(C)=C1C3(C)C)[C@]1(OC(C)=O)CO[C@@H]1C[C@@H]2O"
  testedTarget: "OS-RC-2"
  readoutLabel: "IC50"
  value: "< 0.08 µM"
